# Test system: Bacillus subtilis spores
# Assay Notes: spore suspension test, killing of Bacillus subtilis spores
# Type: cell-based
# Conditions: 20° C., 24 hr exposure
Assay Metric: Log Reduction/mL, 24 hr (log/mL)
Lab book: enter the figure in log/mL, no units written.

Value of measured Log Reduction/mL, 24 hr for the entry [F-].[K+] [1000 mM KF, potassium fluoride] : 0.1

Value of measured Log Reduction/mL, 24 hr for the entry [F-].[Li+] [100 mM LiF, lithium fluoride] : 0.0

Value of measured Log Reduction/mL, 24 hr for the entry [Cl-].[Na+] [1000 mM NaCl, sodium chloride] : 0.2

Value of measured Log Reduction/mL, 24 hr for the entry [Br-].[Na+] [1000 mM NaBr, sodium bromide] : 0.1

Value of measured Log Reduction/mL, 24 hr for the entry [I-].[Na+] [1000 mM NaI, sodium iodide] : 0.1

====

Consider the following compounds; for each one, report its Log Reduction/mL, 8 hr.
# System: Bacillus subtilis spores
# Assay Notes: spore suspension test, killing of Bacillus subtilis spores
# Assay type: cell-based
# Conditions: 20° C., 8 hr exposure
Lab book: enter the figure in log/mL, no units written.

Value of measured Log Reduction/mL, 8 hr for the entry [F-].[K+] [1000 mM KF, potassium fluoride] : 0.0

Value of measured Log Reduction/mL, 8 hr for the entry [F-].[Na+] [1000 mM NaF, sodium fluoride] : 0.0

Value of measured Log Reduction/mL, 8 hr for the entry [I-].[Na+] [1000 mM NaI, sodium iodide] : 0.0
